molecular target: T1, Human serum albumin (human, UniProt P02768 25-609); test: SPR, SA on chip, VHH 300 nM, 25 C
T1 construct: bought; immobilised on a CM5 chip by amine coupling; also called Human SA
readout type: koff (s⁻¹)

The cases that follow already have their koff on record.
| binder | unit annotation | test result |
| --- | --- | --- |
| VHH moiety 12 (MC6.1C22-Y59A) (VHH) VHH: EVQLLESGGGLVQPGGSLRLSCAASGRYIDETAVAWFRQAPGKEREFVAGIGGGVDITAYADSVKGRFTISRDNSKNTLYLQMNSLRPEDTAVYYCAARPGRPLITSKVADLYPYWGQGTLVTVSS | s⁻¹ | 0.011 |
| VHH moiety 18 (MC6.1C22-R102Q) (VHH) VHH: EVQLLESGGGLVQPGGSLRLSCAASGRYIDETAVAWFRQAPGKEREFVAGIGGGVDITYYADSVKGRFTISRDNSKNTLYLQMNSLRPEDTAVYYCAARPGQPLITSKVADLYPYWGQGTLVTVSS | s⁻¹ | 0.0076 |
| VHH moiety 17 (MC6.1C22-R102K) (VHH) VHH: EVQLLESGGGLVQPGGSLRLSCAASGRYIDETAVAWFRQAPGKEREFVAGIGGGVDITYYADSVKGRFTISRDNSKNTLYLQMNSLRPEDTAVYYCAARPGKPLITSKVADLYPYWGQGTLVTVSS | s⁻¹ | 0.0015 |

(P) VHH moiety 39 (MC6.1C90.43) (VHH) VHH: EVQLLESGGGLVQPGGSLRLSCAASGRYIDETAVAWFRQAPGKGREFVAGIGGGVDITYYADSVKGRFTISRDNSKNTLYLQMNSLRPEDTAVYYCGARPGRPLITSKVADLYPYWGQGTLVTVSS
(Q) VHH moiety 11 (MC6.1C22-157Q) (VHH, name printed as 157Q) VHH: EVQLLESGGGLVQPGGSLRLSCAASGRYIDETAVAWFRQAPGKEREFVAGIGGGVDQTYYADSVKGRFTISRDNSKNTLYLQMNSLRPEDTAVYYCAARPGRPLITSKVADLYPYWGQGTLVTVSS
(R) VHH moiety 4 (MC6.1C80.43) (VHH) VHH: EVQLLESGGGLVQPGGSLRLSCAASGRYIDETAVAWFRQAPGKGREFVAGIGGGVDITYYADSVKGRFTISRDNSKNTLYLQMNSLRPEDTAVYYCAARPGRPLITSKVADLYPYWGQGTLVTVSS
*Q* List from greatest to least koff. Answer format: the labels, in the requested order.
*A* Q, R, P
